- Tested on: Erysiphae graminis
- assayInfo: Fungicidal activity against barley powdery mildew (BPM) disease, control value
- Assay type: in vivo
- testParameters: Hordeum vulgare, 168 h; 10 ppm, barley powdery mildew; read-out: BPM control value (C.V.)
Each entry below lists one item and its recorded pest or weed control at 10 ppm value.
measuredProperty: pest or weed control at 10 ppm (%)

{"compound": "CO/N=C(/C(=O)OC)c1ccccc1COc1ccc(C=C(Cl)Cl)cc1Cl [Example 39]", "measuredProperty": "pest or weed control at 10 ppm", "number": 100}
{"compound": "CO/N=C(/C(=O)OC)c1ccccc1COc1ccc(C=C(Br)Br)cc1 [Example 7]", "measuredProperty": "pest or weed control at 10 ppm", "number": 100}
{"compound": "CO/N=C(/C(=O)OC)c1ccccc1COc1cccc(C=C(Cl)Br)c1 [Example 15]", "measuredProperty": "pest or weed control at 10 ppm", "number": 60}
{"compound": "CNC(=O)/C(=N/OC)c1ccccc1COc1ccc(C)cc1C=C(Cl)Cl [Example 46]", "measuredProperty": "pest or weed control at 10 ppm", "number": 100}
{"compound": "CNC(=O)/C(=N/OC)c1ccccc1COc1cccc(C=C(Br)Br)c1 [Example 6]", "measuredProperty": "pest or weed control at 10 ppm", "number": 30}
{"compound": "CNC(=O)/C(=N/OC)c1ccccc1COc1cc(C=C(Cl)Cl)ccc1OC [Example 48]", "measuredProperty": "pest or weed control at 10 ppm", "number": 100}
{"compound": "CNC(=O)/C(=N/OC)c1ccccc1COc1cccc(C=C(Cl)Br)c1 [Example 16]", "measuredProperty": "pest or weed control at 10 ppm", "number": 100}
{"compound": "CO/N=C(/C(=O)OC)c1ccccc1COc1ccc(C=C(Cl)Cl)cc1 [Example 3]", "measuredProperty": "pest or weed control at 10 ppm", "number": 50}

###

- Tested on: Phytophthora infestans
- assayInfo: whole plant or invertebrate
- Assay type: in vivo
- testParameters: Phytophthora infestans, in Solanum lycopersicum, read-out: TLB control value (C.V.)
# pest or weed control at 2 ppm per record follows
measuredProperty: pest or weed control at 2 ppm (%)

{"compound": "CNC(=O)/C(=N/OC)c1ccccc1COc1c(C)cccc1C=C(Cl)Cl [Example 50]", "targetOfAssay": "Phytophthora infestans", "unitTag": "%", "number": 90}
{"compound": "CO/N=C(/C(=O)OC)c1ccccc1COc1ccc(C=C(Br)Br)cc1Br [Example 77]", "targetOfAssay": "Phytophthora infestans", "unitTag": "%", "number": 70}
{"compound": "CO/N=C(/C(=O)OC)c1ccccc1COc1cc(Br)ccc1C=C(Cl)Cl [Example 61]", "targetOfAssay": "Phytophthora infestans", "unitTag": "%", "number": 99}
{"compound": "CO/N=C(/C(=O)OC)c1ccccc1COc1c(C)cccc1C=C(Cl)Cl [Example 49]", "targetOfAssay": "Phytophthora infestans", "unitTag": "%", "number": 97}
{"compound": "CCOc1cc(C=C(Cl)Cl)ccc1OCc1ccccc1/C(=N\\OC)C(=O)NC [Example 60]", "targetOfAssay": "Phytophthora infestans", "unitTag": "%", "number": 70}
{"compound": "CO/N=C(/C(=O)OC)c1ccccc1COc1ccc(C=C(Cl)Cl)cc1C [Example 41]", "targetOfAssay": "Phytophthora infestans", "unitTag": "%", "number": 100}
{"compound": "OC(c1ccc(Cl)cc1)(c1cncnc1)c1ccccc1Cl (stereo not shown) [Fenarimol, reference compound]", "targetOfAssay": "Phytophthora infestans", "unitTag": "%", "number": 75}
